protocol.details: Evaluation of conversion rate to active form in buffer solution (Experimental Example 1)
Format: physicochemical
assay.setup: pH5.0, 3 hr
Method: For Examples 1 to 16 and Comparative Examples 1 to 14, the attrition rate of the test compound and the conversion rate of the test compound to Alvocidib in a buffer solution were calculated by the following method. Examples 1 to 16 and Comparative Examples 1 to 14 were each left in buffer solutions adjusted to pH 5.0, 5.5, 6.0, 6.5, 7.0 and 7.4, respectively, at a concentration of 25 umol/L at 37° C. […]
observable: Residual rate (%)

>>> number("CN1CC[C@H](c2c(O)cc(O)c3c(=O)cc(-c4ccccc4Cl)oc23)[C@H](OC(=O)CN)C1 [Comparative Example 8, reference compound]")
73.9
>>> number("CCOC(=O)O[C@@H]1CN(C)CC[C@@H]1c1c(O)cc(O)c2c(=O)cc(-c3ccccc3Cl)oc12 [Comparative Example 3, reference compound]")
90.6
>>> number("CNC(=O)O[C@@H]1CN(C)CC[C@@H]1c1c(O)cc(O)c2c(=O)cc(-c3ccccc3Cl)oc12 [Comparative Example 5, reference compound]")
93.9
>>> number("CN1CC[C@H](c2c(OC(=O)N(C)CCN)cc(O)c3c(=O)cc(-c4ccccc4Cl)oc23)[C@H](O)C1 [Comparative Example 13, reference compound]")
86.5
